- Substrate: O=C(O)C(=O)c1ccc(O)cc1
- Assay summary: initial rates of reductive amination, HPLC, Michaelis-Menten fit
- Type: biochemical, Corynebacterium glutamicum
- Condition notes: 0.5 mM NADPH, 10 mM NH4Cl, 50 mM Tris-HCl pH 8.0, 30 °C, HPGA 1-20 mM
Readout label: kcat/Km

Protein	Readout label	Recorded value
CgDAPDH^BC621 (Corynebacterium glutamicum ATCC 13032; D154G/H244N/Q150L/R195M/T169I) (protein, five-fold mutant BC621 in pET28a, recombinant in E. coli BL21(DE3), HisTrap purified) MTNIRVAIVGYGNLGRSVEKLIAKQPDMDLVGIFSRRATLDTKTPVFDVADVDKHADDVDVLFLCMGSATDIPEQAPKFAQFACTVDTYDNHRDIPRHRQVMNEAATAAGNVALVSTGWDPGMFSINRVYAAAVLAEHQQHTFWGPGLSLGHSGALRRIPGVQKAVQYILPSEDALEKARRGEAGDLTGKQTHKMQCFVVADAADHERIENDIRTMPDYFVGYEVEVNFIDEATFDSEHTGMPNGGHVITTGDTGGFNHTVEYILKLDRNPDFTASSQIAFGRAAHRMKQQGQSGAFTVLEVAPYLLSPENLDDLIARDV	kcat/Km	0.15 M⁻¹ s⁻¹

// next item, kcat/Km requested
Item under review: CgDAPDH^BC621 (Corynebacterium glutamicum ATCC 13032; D154G/H244N/Q150L/R195M/T169P/W144S) (protein, five-fold mutant BC621 in pET28a, recombinant in E. coli BL21(DE3), HisTrap purified) MTNIRVAIVGYGNLGRSVEKLIAKQPDMDLVGIFSRRATLDTKTPVFDVADVDKHADDVDVLFLCMGSATDIPEQAPKFAQFACTVDTYDNHRDIPRHRQVMNEAATAAGNVALVSTGWDPGMFSINRVYAAAVLAEHQQHTFSGPGLSLGHSGALRRIPGVQKAVQYPLPSEDALEKARRGEAGDLTGKQTHKMQCFVVADAADHERIENDIRTMPDYFVGYEVEVNFIDEATFDSEHTGMPNGGHVITTGDTGGFNHTVEYILKLDRNPDFTASSQIAFGRAAHRMKQQGQSGAFTVLEVAPYLLSPENLDDLIARDV . Reported kcat/Km?
2.83 M⁻¹ s⁻¹
